Measurement Target: E. coli MurF (Escherichia coli, UniProt P11880)
Sequence (P11880 whole entry): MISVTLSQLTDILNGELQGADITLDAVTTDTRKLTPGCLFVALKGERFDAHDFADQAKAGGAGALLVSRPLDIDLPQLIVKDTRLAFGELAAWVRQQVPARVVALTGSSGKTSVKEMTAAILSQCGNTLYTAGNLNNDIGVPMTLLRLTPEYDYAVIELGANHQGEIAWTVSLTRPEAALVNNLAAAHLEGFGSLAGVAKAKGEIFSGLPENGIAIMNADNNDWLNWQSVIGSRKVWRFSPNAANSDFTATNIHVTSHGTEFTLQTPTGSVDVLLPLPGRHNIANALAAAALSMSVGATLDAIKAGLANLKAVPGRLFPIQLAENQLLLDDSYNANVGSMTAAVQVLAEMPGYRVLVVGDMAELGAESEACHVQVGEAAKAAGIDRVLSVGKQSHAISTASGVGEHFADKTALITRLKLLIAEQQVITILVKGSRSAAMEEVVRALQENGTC
Experiment Summary: biochemical
Condition Label: 0.25 h, Table S1, PKIS screening; read-out: RA [%] at 100 µM MurF
What remaining activity at 100 µM was measured for each of the following?
Numbers only, in %.

Some compounds with recorded remaining activity at 100 µM:
>  <Compound>
CCS(=O)(=O)c1ccc(OC)c(Nc2ncc(-c3cccc(F)c3)o2)c1 [GW621970X]

>  <Measured Quantity>
remaining activity at 100 µM

>  <Uom>
%

>  <Observed Value>
89

$$$$
>  <Compound>
CCc1nccc2c1nc(-c1nonc1N)n2CC

>  <Measured Quantity>
remaining activity at 100 µM

>  <Uom>
%

>  <Observed Value>
88

$$$$

List remaining activity at 100 µM for every entry below, keeping the order given.
1. Fc1cccc(COc2ccc(Nc3ncncc3C#Cc3ccccc3)cc2Cl)c1 [GW651576X]
2. CN1CCC(C(=O)Nc2n[nH]c3nc(-c4ccc(O)cc4)c(Br)cc23)CC1

1: 91; 2: 90

====

Please respond with reported remaining activity at 100 µM for every item in the list.
Measurement Target: E. coli MurF (Escherichia coli)
Experiment Summary: biochemical
Condition Label: 0.25 h, Table S1, PKIS screening; read-out: RA [%] at 100 µM MurF
One number for each entry, in %.

Previously resolved entries follow.
>  <Molecule>
Nc1nccc(-c2c(-c3ccc(F)cc3)ncn2C2CCC(O)CC2)n1 (stereo not drawn) [SB-223133]

>  <Observed Value>
88

$$$$
>  <Molecule>
Fc1ccc(-c2c(-c3ccncc3)nc3n2CCS3)cc1 [SKF-86055]

>  <Observed Value>
89

$$$$

Now look at this entry.
Give the reported remaining activity at 100 µM for this molecule. NS(=O)(=O)c1cccc(-c2ccc3c(NC(=O)C4CC4)n[nH]c3c2)c1 [SB-741905]
88
